All values here come from paper PMC8162404.

# Assayed target: CaM (Bos taurus, UniProt P62157)
# Construct: made in house; host or cells: E. coli BL21 (DE3)
# Assay info: Pull-down assay with immobilized protein and LSM libraries
# Assay type: binding, bovine
# Measurement setup: H14 library; 1:2 stoichiometry assumed; read-out: Surface mapping KD (apparent)
# Procedure: Pull-down assays with immobilized test proteins and foldameric LSM libraries were carried out. Proteins were equilibrated with LSM probes, and equilibrium bound fractions (FB) were determined from the unbound fractions measured by HPLC-MS methods. Hits were corrected with background binding of the resin. […] MS data analysis. […] Using these processing setups, all raw data files were reprocessed together and analyzed. […]
Result type: Kd (µM)
Number only, in µM; omit the unit.

// worked examples, Kd included
[
  {
    "Cpd smiles": "NC(=O)[C@H]1CCCC[C@@H]1NC(=O)C[C@H](CO)NC(=O)[C@H]1CCCC[C@@H]1NC(=O)[C@H]1CCCC[C@@H]1NC(=O)C[C@H](Cc1ccc(O)cc1)NC(=O)[C@H]1CCCC[C@@H]1N",
    "Result type": "Kd",
    "Numeric result": 67
  },
  {
    "Cpd smiles": "CC(C)[C@@H](CC(=O)N[C@H]1CCCC[C@@H]1C(N)=O)NC(=O)[C@H]1CCCC[C@@H]1NC(=O)[C@H]1CCCC[C@@H]1NC(=O)C[C@H](CCC(N)=O)NC(=O)[C@H]1CCCC[C@@H]1N",
    "Result type": "Kd",
    "Numeric result": 94
  },
  {
    "Cpd smiles": "NC(=O)CC[C@@H](CC(=O)N[C@H]1CCCC[C@@H]1C(=O)N[C@H]1CCCC[C@@H]1C(=O)N[C@H](CC(=O)N[C@H]1CCCC[C@@H]1C(N)=O)Cc1ccc(O)cc1)NC(=O)[C@H]1CCCC[C@@H]1N",
    "Result type": "Kd",
    "Numeric result": 92
  },
  {
    "Cpd smiles": "CC(C)C[C@@H](CC(=O)N[C@H]1CCCC[C@@H]1C(N)=O)NC(=O)[C@H]1CCCC[C@@H]1NC(=O)[C@H]1CCCC[C@@H]1NC(=O)C[C@H](Cc1ccccc1)NC(=O)[C@H]1CCCC[C@@H]1N",
    "Result type": "Kd",
    "Numeric result": 0.6
  }
]

So, CC(C)[C@@H](CC(=O)N[C@H]1CCCC[C@@H]1C(=O)N[C@H]1CCCC[C@@H]1C(=O)N[C@@H](CCCNC(=N)N)CC(=O)N[C@H]1CCCC[C@@H]1C(N)=O)NC(=O)[C@H]1CCCC[C@@H]1N ? Its Kd was 40
